Some binders, each annotated with its measured Percent Similarity Score (KD on rN).
- study target: T1, rat NGF (rat, UniProt P25427 122-241)
- T1 construct: also called rN
- T1 sequence (P25427 122-241 limits assumed): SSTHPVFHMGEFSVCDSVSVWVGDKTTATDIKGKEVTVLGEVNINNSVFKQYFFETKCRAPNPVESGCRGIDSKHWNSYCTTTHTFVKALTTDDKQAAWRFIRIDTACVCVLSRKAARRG
- assay protocol: SPR (Biacore T200), 100 nM mAb on NGF chip, similarity to parent mAb
Hi! Could you send only the number? It should be in %, unit omitted.

Here are 2 binders together with their reported answers.
[in] What does the record list as Percent Similarity Score (KD on rN) for can48L2VL_I31A (antibody, V domains shown, CDR scanning mutant of ZTS-842 (48L2)) VH: EVQLVESGGDLVKPGGSLRLSCVASGFTFSTYGINWVRQAPGKGLQWVAYISSGGSSTYYADPVKGRFTISRDDAKNMLYLQMNSLRAEDTAIYYCAGSRYTYAYGGGYEFHFWGQGTLVTVSS VL: QAVLNQPASVSGALGQKVTISCSGSTMDIDAFGVSWYQQLPGKAPKLLVDSDGDRPSGIPDRFSGSRSGNSGTLTITGLQAEDEADYHCQSGDSTLGALAIFGGGTHVTVL ?
[out] 39.9

[in] Name the reported Percent Similarity Score (KD on rN) value associated with the binder can9L12VL_T95A (antibody, V domains shown) VH: EVQLVESGGDLVKPGGSLRLSCVASGFTFSSHGMHWVRQSPGKGLQWVAVINSGGSSTYYTDAVKGRFTISRDNAKNTVYLQMNSLRAEDTAMYYCAKESVGGWEQLVGPHFDYWGQGTLVIVSS VL: QSVLTQPTSVSGSLGQRVTISCSGSTNNIGILGASWYQLFPGKAPKLLVYGNGNRPSGVPDRFSGADSGDSVTLTITGLQAEDEADYYCQSFDTALGAHVFGGGTHLTVL
[out] 99.9

Now examine the next entry.
[in] # Percent Similarity Score (KD on rN) lookup, item can9L12VH_V101A (antibody, V domains shown) VH: EVQLVESGGDLVKPGGSLRLSCVASGFTFSSHGMHWVRQSPGKGLQWVAVINSGGSSTYYTDAVKGRFTISRDNAKNTVYLQMNSLRAEDTAMYYCAKESAGGWEQLVGPHFDYWGQGTLVIVSS VL: QSVLTQPTSVSGSLGQRVTISCSGSTNNIGILGASWYQLFPGKAPKLLVYGNGNRPSGVPDRFSGADSGDSVTLTITGLQAEDEADYYCQSFDTTLGAHVFGGGTHLTVL
[out] 4.27
